Target: Dyn2 (S. cerevisiae dynein light chain), wild type, full length (S. cerevisiae, UniProt Q02647 1-92)
Assay: ITC
reported.metric: Kd (nM)
Answers are plain numbers, in nM.

The measured Kd associated with ITYDKGIQTDQ [Pac11 peptide 2 (second Dyn2-binding site of Pac11, residues 75-85)] reads 620
